tested on: ACHN; assay: NCI tumour cell line growth inhibition, 48 h
Activity calls are given as the source filed them. No stated cut-off is given here; in the data, active = GI50 up to about 1.1 µM and inactive = higher.
Hi there, use one of these labels in your reply, thanks! active, inactive

// below: answered molecules
[
  {
    "Molecule": "O=C(CCCCCCCCC(=O)NN1C(=O)/C(=C\\c2ccc(O)c(O)c2)SC1c1c(O)ccc2ccccc12)NN1C(=O)C(=Cc2ccc(O)c(O)c2)SC1c1c(O)ccc2ccccc12 (stereo unspecified)",
    "Label value": "inactive"
  },
  {
    "Molecule": "COc1ccc(/C=[N+](\\[O-])[C@H](COCc2ccccc2)c2ccccc2)cc1",
    "Label value": "inactive"
  },
  {
    "Molecule": "CC(C)(C)OC(=O)NCCCCCCC(=O)Cc1ccccc1",
    "Label value": "inactive"
  },
  {
    "Molecule": "OC1CCN(c2c3ccccc3nc3ccccc23)CC1",
    "Label value": "inactive"
  },
  {
    "Molecule": "COc1ccc2[nH]c3c(C)c4ccnc(NCCCN(C)CCCN)c4c(C)c3c2c1",
    "Label value": "active"
  }
]

Now turn to the next molecule.
Please share the test call associated with O=C1CCCCC/C1=C\c1ccccc1 .
inactive
